The reported numbers originate from ChEMBL document CHEMBL4765397.

Measured IC50 on Serine/threonine-protein kinase mTOR (Homo sapiens, UniProt P42345) follows.
PROPERTY_MEASURED: IC50 (µM)

In the examples that follow, each entry is paired with its recorded IC50.
NC(=O)C1CCN(C(=O)c2ccc3nc(Nc4ccc(-c5nc(N6CCOCC6)nc(N6CCOCC6)n5)cc4)[nH]c3c2)CC1 : 15.4
CN(C)C1CCN(C(=O)c2ccc3nc(Nc4ccc(-c5nc(N6CCOCC6)nc(N6CCOCC6)n5)cc4)[nH]c3c2)CC1 : 14.6
NC(=O)C1CCCCN1C(=O)c1ccc2nc(Nc3ccc(-c4nc(N5CCOCC5)nc(N5CCOCC5)n4)cc3)[nH]c2c1 (stereo not given) : 8.5

[1] CS(=O)(=O)N1CCN(C(=O)c2ccc3nc(Nc4ccc(-c5nc(N6CCOCC6)nc(N6CCOCC6)n5)cc4)[nH]c3c2)CC1
[2] NC(=O)[C@H]1CCCN1C(=O)c1ccc2nc(Nc3ccc(-c4nc(N5CCOCC5)nc(N5CCOCC5)n4)cc3)[nH]c2c1
**Query** Which gives the smaller IC50 number: 1 or 2 ? Output the label that corresponds to your choice.
**Result** 2
(2: 5.6 µM, 1: 11.9 µM)
